target: UniProtKB P51449; assay: Time-resolved fluorescence resonance energy-transfer assay (TR-FRET), co-activator peptide recruitment; conditions: His-RORγt-LBD 30 nM, SRC peptide 500 nM; agonistic activity; averages of one or more measurements; read-out: TR-FRET Biochemical EC50/
Sequence (P51449 269-508 limits assumed, species assumed): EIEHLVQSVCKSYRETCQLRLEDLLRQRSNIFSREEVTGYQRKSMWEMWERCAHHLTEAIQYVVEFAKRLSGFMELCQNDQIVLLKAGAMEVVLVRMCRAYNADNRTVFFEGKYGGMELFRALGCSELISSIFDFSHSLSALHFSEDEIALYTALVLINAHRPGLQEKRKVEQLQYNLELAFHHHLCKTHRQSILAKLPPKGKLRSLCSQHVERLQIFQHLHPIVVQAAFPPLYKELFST
pEC50: −log10 of the molar value.
# key: entry, value: pEC50

[
  {
    "compound": "O=C(O)CCOC1CCN2c3ccc(-c4cc(F)cc(OC(F)F)c4)cc3N(S(=O)(=O)c3cccc(C(F)(F)F)c3)C[C@@H]2C1 (stereo partly drawn) [Example 109]",
    "pEC50": 7.76
  },
  {
    "compound": "C/C(=C\\c1ccc2c(c1)N(S(=O)(=O)c1cccc(C(F)(F)F)c1)C[C@@H]1CN(C(C)C(=O)O)CCN21)c1c(F)cccc1Cl (stereo partly drawn) [Example 25]",
    "pEC50": 8.20
  },
  {
    "compound": "COc1ncc(C(F)(F)F)cc1S(=O)(=O)N1C[C@@H]2CN(CC(=O)O)CCN2c2ccc(-c3cc(F)cc(OC(F)F)c3)cc21 [Example 93]",
    "pEC50": 7.33
  },
  {
    "compound": "NC(=S)N1CCN2c3ccc(-c4cc(F)cc(OC(F)F)c4)cc3N(S(=O)(=O)c3cccc(C(F)(F)F)c3)C[C@@H]2C1 [Example 64]",
    "pEC50": 7.32
  },
  {
    "compound": "CC(=O)N1CCN2c3ccc(C4=CC(C)(C)OC(C)(C)C4)cc3N(S(=O)(=O)c3cccc(C(F)(F)F)c3)C[C@@H]2C1 [Example 16]",
    "pEC50": 8.02
  },
  {
    "compound": "C/C(=C\\c1ccc2c(c1)N(S(=O)(=O)c1cccc(C(F)(F)F)c1)C[C@@H]1CN(CC(=O)OCOC(=O)OC(C)C)CCN21)c1c(F)cccc1Cl [Example 49]",
    "pEC50": 8.26
  },
  {
    "compound": "CC(C)(C)OC(=O)C(C)(C)N1CCN2c3ccc(-c4cc(F)cc(OC(F)F)c4)cc3N(S(=O)(=O)c3cccc(C(F)(F)F)c3)C[C@@H]2C1 [Example 51]",
    "pEC50": 7.31
  },
  {
    "compound": "CN1c2ccc(C3=CC(C)(C)OC(C)(C)C3)cc2N(S(=O)(=O)c2cccc(C(F)(F)F)c2)C[C@@H]1CCC(=O)O [Example 118]",
    "pEC50": 6.69
  },
  {
    "compound": "CC1(C)C=C(c2ccc3c(c2)N(S(=O)(=O)c2cccc(C(F)(F)F)c2)C[C@@H]2CN(S(C)(=O)=O)CCN32)CC(C)(C)O1 [Example 19]",
    "pEC50": 7.75
  },
  {
    "compound": "O=S(=O)(c1cc(C(F)(F)F)cnc1OCCO)N1C[C@@H]2CNCCN2c2ccc(-c3cc(F)cc(OC(F)F)c3)cc21 [Example 87]",
    "pEC50": 6.42
  },
  {
    "compound": "CC1(C)C=C(c2ccc3c(c2)N(S(=O)(=O)c2cc(C(F)(F)F)cnc2OCCO)C[C@@H]2CNCCN32)CC(C)(C)O1 [Example 88]",
    "pEC50": 6.72
  },
  {
    "compound": "CS(=O)(=O)CCOC1CCN2c3ccc(-c4cc(F)cc(OC(F)F)c4)cc3N(S(=O)(=O)c3cccc(C(F)(F)F)c3)C[C@@H]2C1 (stereo partly drawn) [Example 111]",
    "pEC50": 7.72
  }
]
